All values here come from the supplement of paper PMC11451515.

Test system: SEM cells
Assay: cell viability relative to DMSO control; higher = less cytotoxic
Conditions: RPMI 5 mM glucose + 10% dialyzed FBS; 48 h; 1.71 µM
Each entry below lists one item and its recorded cell viability value.
API: value field is a number in %; no unit string.

compound: CCC(C)SSc1ncc[nH]1 (stereo not drawn)
quantity_unit: %
data_value: 27.2

compound: CN(CC#C)C/C1=C/C2=CC=CC=C2OC3=CC=CC=C13
quantity_unit: %
data_value: 103

compound: CC(C)NCC(O)COc1ccc(COCCOC(C)C)cc1 (stereo not drawn)
quantity_unit: %
data_value: 138

compound: C=CC(=O)Nc1cccc(Oc2nc(Nc3ccc(N4CCN(C)CC4)cc3)ncc2Cl)c1
quantity_unit: %
data_value: 71.8

compound: COc1c(C)cnc(Cn2cnc3c(Cl)nc(N)nc32)c1C
quantity_unit: %
data_value: 33.1

compound: CC(=O)O.Cc1c(-c2ccc(O)cc2)n(Cc2ccc(OCCN3CCCCCC3)cc2)c2ccc(O)cc12
quantity_unit: %
data_value: 94.1

compound: CN(C)CCOc1cc(-c2cn[nH]c2)ccc1NC(=O)C1COc2ccccc2O1 (stereo not drawn)
quantity_unit: %
data_value: 102

compound: CC(C)C(C)/C=C/C(C)C1CCC2C3=CC=C4CC(O)CCC4(C)C3CCC21C (stereo not drawn)
quantity_unit: %
data_value: 105

compound: C[C@]\12CC[C@H](O)CC1=C/CC3C2CC[C@@]\4(C)C3C\C=C4[N]5C=NC6=C5C=CC=C6 (stereo partly drawn)
quantity_unit: %
data_value: 119

compound: COC1=NC(=NC(=C1N\C2=N\CCN2)Cl)C
quantity_unit: %
data_value: 101

Summary for this compound, COC1=CC2=NC=CC(=C2C=C1)OC3=CN=C(NC(=O)C/4=C(C)/N(CC(C)(C)O)N(C4=O)C5=CC=CC=C5)C=C3 : cell viability is 50.3

The value of cell viability measured for the compound NC[C@H]1CC[C@H](C(=O)O)CC1 turned out to be 116

Note to self: cell viability recorded for CC(=O)O[C@H]1C(=O)[C@]2(C)[C@@H](O)C[C@H]3OC[C@@]3(OC(C)=O)C2[C@H](OC(=O)C4=CC=CC=C4)[C@]5(O)C[C@H](OC(=O)[C@H](O)[C@@H](NC(=O)C6=CC=CC=C6)C7=CC=CC=C7)\C(=C1/C5(C)C)C (stereo partly drawn) was 22.3
